Target: human FGFR3 V555M enzyme (cytoplasmic domain carrying V555M mutation) (Homo sapiens, UniProt P22607, V555M)
Construct: cytoplasmic domain carrying V555M mutation, from Carna Biosciences
Sequence (P22607 397-806 V555M limits assumed): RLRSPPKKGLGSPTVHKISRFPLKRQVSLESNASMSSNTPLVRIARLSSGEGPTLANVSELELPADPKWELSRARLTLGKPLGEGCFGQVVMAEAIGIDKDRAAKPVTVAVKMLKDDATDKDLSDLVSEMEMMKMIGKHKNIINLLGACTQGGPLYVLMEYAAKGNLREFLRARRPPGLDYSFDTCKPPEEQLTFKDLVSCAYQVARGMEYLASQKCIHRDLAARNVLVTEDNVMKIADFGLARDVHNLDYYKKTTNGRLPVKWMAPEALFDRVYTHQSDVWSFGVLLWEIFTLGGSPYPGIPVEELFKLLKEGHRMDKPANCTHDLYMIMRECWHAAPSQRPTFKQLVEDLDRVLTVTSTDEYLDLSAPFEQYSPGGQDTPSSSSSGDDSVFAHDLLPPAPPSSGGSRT
Test: FGFR3 V555M mobility shift assay (enzymatic assay, Caliper)
Details: 30 μM ATP, 45 minutes at 30° C.
Metric: log10(IC50) (log10 of the value in nM)
Quick note: numbers are log10 of IC50, with nM as the unit.

Field: example entries. Status: answers known.
Compound	log10(IC50)
COc1cc(OC)c2nc(-c3c(N[C@@H](C)c4ncccn4)c4nn(C)cc4[nH]c3=O)[nH]c2c1	-0.29
CC(C)[C@H](Nc1c(-c2nc3ncc(N(C)C)cc3[nH]2)c(=O)[nH]c2cn(C)nc12)c1ncccn1 (single isomer, unassigned)	-0.40
COCC(Nc1c(-c2nc3cc(OC)c(OC)cc3[nH]2)c(=O)[nH]c2cn(C)nc12)c1ncccn1 (single isomer, unassigned)	2.34

Consider COc1cc2[nH]c(-c3c(NC(c4ncccn4)C(C)C)c4nn(C)cc4[nH]c3=O)nc2cn1 (single isomer, unassigned) . Its measured log10(IC50) is 0.23

Consider `COc1cc2[nH]c(-c3c(N[C@@H](C)c4ncccn4)c4nn(C)cc4[nH]c3=O)nc2c(F)c1OC` . Its measured log10(IC50) is -0.41

Consider CCn1cc2[nH]c(=O)c(-c3nc4cc(OC)c(OC)cc4[nH]3)c(N[C@@H](C)c3ncccn3)c2n1 [Compound 37] . Its measured log10(IC50) is -0.17

Consider `CCn1cc2[nH]c(=O)c(-c3nc4c(OC)cccc4[nH]3)c(N[C@@H](C)c3ncccn3)c2n1` . Its measured log10(IC50) is 0.31
